Test Method Notes: Cytotoxicity against human HuH7 cells assessed as cell viability at 20 uM after 3 days by XTT method relative to control
Type: cell-based, Huh-7
Condition Summary: read-out: Activity
Test Readout: viability at 72 h, 20 µM (%)
Answers are plain numbers, in %.

The following molecules have reported results that may help.
Chem Smiles | viability at 72 h, 20 µM / %
Fc1ccc(-c2cc(-c3ccc4cc(F)ccc4n3)n(-c3ccccc3)n2)cc1 | 88.1
Fc1ccc2nc(-c3cc(-c4ccccc4)n(-c4ccccc4)n3)ccc2c1 | 124
NS(=O)(=O)c1ccc(-n2nc(-c3ccc(F)cc3)cc2-c2ccc3cc(F)ccc3n2)cc1 | 91.1
COc1ccc(-c2cc(-c3ccc4cc(F)ccc4n3)n(-c3ccccc3)n2)cc1 | 104

Notebook: Fc1ccc(-c2cc(-c3ccc4cc(F)ccc4n3)n(-c3ccc(F)cc3)n2)cc1 , viability at 72 h, 20 µM read as 95.3

Reference for the values: ChEMBL document CHEMBL4130503
